Where do the numbers come from? From patent US11994512B2.

# Test system: intracellular proteome of ENR+CD and ENR organoids
# method-description: LC-MS/MS TMT proteomics of ENR+CD versus ENR organoids
# Type: cell-based, C57BL/6 mice
# assay-context: protein abundance ratio ENR+CD versus ENR organoids, sample pair M1-2; LC-MS/MS TMT proteomics
Assign met whenever M1-2 Log2 Median Normalized does not fall below -0.9; assign not met whenever it does.

Examples from the recorded data:
>>> class_assignment("Q9D009 (protein, UniProt Q9D009 1-231, looked up, full-length) MSLPVVRLVWLGRVHYSELLALQEHWLRRLQADPRPGTLSGTKAGVLLVCEPAGPVYTGGLRGGLTPEETTRLRALGAEVRATGRGGLATFHGPGQLLCHPVLDLRLLGLRLRTHVAALEACAVRLCELRGLQGARARPPPYTGVWLGERKICAIGVRCGRHITSHGLALNCSTDLTWFEHIVPCGLVGTGVTSLSEALQRLVTVDEVMPSFLVAFKETFKCTLISEDSPS")
"not met"
>>> class_assignment("Q9CXC3 (protein, UniProt Q9CXC3 1-338, looked up, full-length) MKLPLTFCRLLSRLNRFSVKASPPVSFSTFSYLCSQKKKNSYEAVDQAKYSRLVRSVLSRGPAQTPESLFKEDDVLYGPVSKHKAAEPEPQARVPQHCFPIFNEERTGKPHTDASSSPLKIPLQRNSIPSVTRILQQTMPPEQSFFLERWKERMVLELGEDGFAEYTSNVFLQGKQFHKALESILSPQENLTGGEEHPQCGYIESIQHILTEISGVQALESAVQHEALKYVGLLDCVAEYRGKLCVIDWKTSEKPKPLIRNTYDNPLQVVAYMGAVNHDAHYSFQVQCGLIVVAYKDGSPAHPHFMDEELCSKYWAKWLLRLEEYTEKQKNLSAPEPA")
"met"
>>> class_assignment("Q9DCT8 (protein, UniProt Q9DCT8 1-208, looked up, full-length) MASKCPKCDKTVYFAEKVSSLGKDWHKFCLKCERCNKTLTPGGHAEHDGKPFCHKPCYATLFGPKGVNIGGAGSYIYEKPQTEAPQVTGPIEVPVVRTEERKTSGPPKGPSKASSVTTFTGEPNMCPRCNKRVYFAEKVTSLGKDWHRPCLRCERCSKTLTPGGHAEHDGQPYCHKPCYGILFGPKGVNTGAVGSYIYDKDPEGTVQP")
"met"
>>> class_assignment("Q9CXS4 (protein, UniProt Q9CXS4 1-252, looked up, full-length) MRRTRSAVATGPREQRRSGATGGLSGGESRAQRSRSRTRAGAGGGGGAVGPQPSAKPRPKPPPRAQEAAAEEPPPAVTPAASVSALDLGEQRERWETFQKRQRLSFEGAAKLLLDTFEYQGLVKHTGGCHCGAVRFEVWASADLHIFDCNCSICKKKQNRHFIVPASRFKLLKGAESITTYTFNTHKAQHTFCKRCGVQSFYTPRSNPGGFGIAPHCLDEGTVRSVVTEEFNGSDWERAMKEHKTIKNMSKE")
"not met"

For the next question, use this molecule.
query: Hello, I need to know if Q7TNV0 (protein, UniProt Q7TNV0 1-380, looked up, full-length) MSAAAAPAAEGEDAPVPPSSEKEPEMPGPREESEEEEEDDEDDDEEDEEEEKEKSLIVEGKREKKKVERLTMQVSSLQREPFTVTQGKGQKLCEIERIHFFLSKKKPDELRNLHKLLYNRPGTVSSLKKNVGQFSGFPFEKGSTQYKKKEEMLKKFRNAMLKSICEVLDLERSGVNSELVKRILNFLMHPKPSGKPLPKSKKSSSKGSKKERNSSGTTRKSKQTKCPEILSDESSSDEDEKKNKEESSEDEEKESEEEQPPKKTSKKEKAKQKATAKSKKSVKSANVKKADSSTTKKNQKSSKKESESEDSSDDEPLIKKLKKPPTDEELKETVKKLLADANLEEVTMKQICKEVYENYPAYDLTERKDFIKTTVKELIS has measured M1-2 Log2 Median Normalized not below -0.9. Thanks!
result: met
